Cited source for all entries: patent US20260234242A1

Parameter Max MFI: see the listing below.
# TARGET UNDER TEST: T1, human CDH6 on tumor cells (OVCAR3 cells, PA-1 cells) (human, UniProt P55285 54-790)
# T1 sequence: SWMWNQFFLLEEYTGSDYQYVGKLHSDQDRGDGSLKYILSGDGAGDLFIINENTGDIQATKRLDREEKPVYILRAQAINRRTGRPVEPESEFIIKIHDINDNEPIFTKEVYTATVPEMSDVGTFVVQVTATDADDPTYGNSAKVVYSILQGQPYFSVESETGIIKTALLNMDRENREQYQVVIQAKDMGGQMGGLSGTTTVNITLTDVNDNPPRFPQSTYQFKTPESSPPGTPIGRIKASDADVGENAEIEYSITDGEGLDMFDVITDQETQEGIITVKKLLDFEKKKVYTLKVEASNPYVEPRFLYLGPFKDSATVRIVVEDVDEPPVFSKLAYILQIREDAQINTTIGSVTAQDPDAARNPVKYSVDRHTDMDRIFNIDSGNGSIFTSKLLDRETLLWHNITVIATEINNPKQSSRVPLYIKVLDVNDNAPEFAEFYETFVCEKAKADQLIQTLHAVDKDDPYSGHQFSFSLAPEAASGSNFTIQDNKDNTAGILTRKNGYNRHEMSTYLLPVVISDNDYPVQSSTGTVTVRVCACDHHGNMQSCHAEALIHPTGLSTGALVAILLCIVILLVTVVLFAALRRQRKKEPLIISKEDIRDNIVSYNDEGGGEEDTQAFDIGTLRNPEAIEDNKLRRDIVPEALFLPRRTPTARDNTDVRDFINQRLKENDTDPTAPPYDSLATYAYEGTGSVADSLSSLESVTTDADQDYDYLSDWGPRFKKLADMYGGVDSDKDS
# MEASUREMENT NOTES: FACS, PA-1 cells
Report the value in MFI with no unit label.

Look over these answered cases.
{"BINDER": "hCDH6-14-H6L1 (antibody, V domains shown, Humanized) VH: EVQLVQSGAEVKKPGASVKVSCKASGYTFTDNYINWVRQAPGQRLEWMGWIYPGTGNSYYNEKFKGRVTITVDTSASTAYMELSSLRSEDTAVYLCASSYGDSFDYWGQGTTVTVSS VL: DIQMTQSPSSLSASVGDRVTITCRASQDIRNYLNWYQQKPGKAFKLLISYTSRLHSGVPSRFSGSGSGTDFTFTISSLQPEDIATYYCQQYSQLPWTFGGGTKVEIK", "Max MFI / MFI": 3700}
{"BINDER": "hCDH6-14-H6L3 (antibody, V domains shown, Humanized) VH: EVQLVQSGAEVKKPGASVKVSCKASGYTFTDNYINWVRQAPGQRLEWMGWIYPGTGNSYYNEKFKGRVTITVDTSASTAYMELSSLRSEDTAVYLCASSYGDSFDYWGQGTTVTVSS VL: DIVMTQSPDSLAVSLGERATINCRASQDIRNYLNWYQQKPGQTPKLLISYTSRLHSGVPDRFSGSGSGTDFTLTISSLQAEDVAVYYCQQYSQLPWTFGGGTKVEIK", "Max MFI / MFI": 3890}
{"BINDER": "hCDH6-14-H5L2 (antibody, V domains shown, Humanized) VH: EVQLQQSGAEVKKPGASVKVSCKASGYTFTDNYINWVRQAPGQRLEWMGWIYPGTGNSYYNEKFKGRVTITVDTSASTAYMELSSLRSEDTAVYYCASSYGDSFDYWGQGTTVTVSS VL: DIQMTQSPSSLSASVGDRVTITCRASQDIRNYLNWYQQKPGGAPKLLISYTSRLHSGVPSRFSGSGSGTDFTFTISSLQPEDIATYYCQQYSQLPWTFGGGTKVEIK", "Max MFI / MFI": 3320}
{"BINDER": "hCDH6-14-H1L1 (antibody, V domains shown, Humanized) VH: EVQLVQSGAEVKKPGASVKVSCKASGYTFTDNYINWVRQAPGQRLEWMGWIYPGTGNSYYNEKFKGRVTITVDTSASTAYMELSSLRSEDTAVYYCASSYGDSFDYWGQGTTVTVSS VL: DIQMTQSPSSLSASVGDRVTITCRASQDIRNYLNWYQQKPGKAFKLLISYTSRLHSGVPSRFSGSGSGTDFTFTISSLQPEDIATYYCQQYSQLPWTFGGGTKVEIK", "Max MFI / MFI": 3680}
{"BINDER": "hCDH6-14-H6L2 (antibody, V domains shown, Humanized) VH: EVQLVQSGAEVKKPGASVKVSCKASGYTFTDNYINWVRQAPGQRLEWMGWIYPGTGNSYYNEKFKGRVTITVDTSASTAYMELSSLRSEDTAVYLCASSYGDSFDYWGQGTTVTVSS VL: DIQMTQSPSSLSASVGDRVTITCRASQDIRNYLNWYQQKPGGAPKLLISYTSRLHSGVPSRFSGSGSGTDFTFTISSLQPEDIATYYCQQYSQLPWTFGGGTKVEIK", "Max MFI / MFI": 3540}

Query: Quick one: Max MFI of hCDH6-14-H4L3 (antibody, V domains shown, Humanized) VH: EVQLVQSGAEVKKPGASVKVSCKASGYTFTDNYINWVRQAPGQGLEWMGWIYPGTGNSYYNEKFKGRVTITVDTSASTAYMELSSLRSEDTAVYYCASSYGDSFDYWGQGTTVTVSS VL: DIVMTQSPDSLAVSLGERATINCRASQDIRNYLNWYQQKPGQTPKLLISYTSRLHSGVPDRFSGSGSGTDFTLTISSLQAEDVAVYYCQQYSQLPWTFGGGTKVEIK ?
Result: 3870

Query: And the next one, hCDH6-14-H4L1 (antibody, V domains shown, Humanized) VH: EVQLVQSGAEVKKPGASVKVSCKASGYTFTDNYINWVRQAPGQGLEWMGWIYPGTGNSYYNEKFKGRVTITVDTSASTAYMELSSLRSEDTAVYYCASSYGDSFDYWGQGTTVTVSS VL: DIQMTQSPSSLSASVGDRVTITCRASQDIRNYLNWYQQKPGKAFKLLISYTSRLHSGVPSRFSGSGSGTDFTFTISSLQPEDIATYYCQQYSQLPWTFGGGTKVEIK ?
Result: 3820

Query: And the next one, hCDH6-14-H2L2 (antibody, V domains shown, Humanized) VH: EIQLVQSGAEVKKPGASVKVSCKASGYTFTDNYINWVRQAPGQRLEWMGWIYPGTGNSYYNEKFKGRVTITVDTSASTAYMELSSLRSEDTAVYYCASSYGDSFDYWGQGTTVTVSS VL: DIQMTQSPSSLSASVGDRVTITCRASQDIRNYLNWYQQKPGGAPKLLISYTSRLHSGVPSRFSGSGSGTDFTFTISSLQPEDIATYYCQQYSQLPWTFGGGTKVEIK ?
Result: 3930

Query: And the next one, hCDH6-14-H3L1 (antibody, V domains shown, Humanized) VH: EIQLVQSGAEVKKPGASVKVSCKASGYTFTDNYINWVRQAPGQRLEWMGWIYPGTGNSYYNEKFKGRVTLTVDTSASTAYMELSSLRSEDTAVYYCASSYGDSFDYWGQGTTVTVSS VL: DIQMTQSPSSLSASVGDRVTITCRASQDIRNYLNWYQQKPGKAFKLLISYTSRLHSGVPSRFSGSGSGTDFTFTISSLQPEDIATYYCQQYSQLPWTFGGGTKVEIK ?
Result: 3490

Query: And the next one, hCDH6-14-H5L1 (antibody, V domains shown, Humanized) VH: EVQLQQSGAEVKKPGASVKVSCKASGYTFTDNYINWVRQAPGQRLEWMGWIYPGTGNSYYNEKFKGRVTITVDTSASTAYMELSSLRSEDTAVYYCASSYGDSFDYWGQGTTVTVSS VL: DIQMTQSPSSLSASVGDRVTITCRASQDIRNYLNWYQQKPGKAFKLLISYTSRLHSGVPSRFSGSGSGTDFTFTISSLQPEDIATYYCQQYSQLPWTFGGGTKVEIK ?
Result: 3780
